Parameter TGI: see the listing below.
Tested on: OVCAR-8 ovarian
Assay explanation: NCI tumour cell line growth inhibition, 48 h

>>> result("COc1cc(C(=O)O[C@@H]2[C@@H](OC(=O)c3cc(OC)c(OC)c(OC)c3)[C@@H](OC)O[C@@H]3CO[C@@H](c4ccccc4)O[C@@H]23)cc(OC)c1OC")
"> 100 µM"

Tested on OVCAR-8 ovarian: "CC1(C)CC(=O)C2=C(C1)NC1=C(C(=O)CC(C)(C)C1)C2c1ccc([N+](=O)[O-])cc1" . Observed TGI: > 100 µM

Tested on OVCAR-8 ovarian: "CC(C)CC(=O)Nc1n[nH]c2c1CN(C(=O)C1CCN(C)CC1)C2(C)C" . Observed TGI: > 10 µM

Tested on OVCAR-8 ovarian: "CCN(CC)CCCn1c(=O)c2ccccc2n2c3c(=O)n(C)c(=O)n(C)c3nc12" . Observed TGI: 23.4 µM

Tested on OVCAR-8 ovarian: O=C(O)/C(Cl)=C(\Cl)C(=O)NC1C2CC3CC(C2)CC1C3 (centres undefined) . Observed TGI: > 100 µM

Tested on OVCAR-8 ovarian: "Cc1nc([C@H]2CC[C@H]3[C@@H]4CCC5=CC(=O)CC[C@]5(C)[C@H]4CC[C@]23C)cs1" . Observed TGI: > 100 µM

Tested on OVCAR-8 ovarian: O=C1N2CCc3c([nH]c4ccccc34)C23CC2CCCCC12S3 (centres undefined) . Observed TGI: > 100 µM

Tested on OVCAR-8 ovarian: OC(COc1ccc(F)cc1)Cn1cnc2c(Cl)ncnc21 (centres undefined) . Observed TGI: > 100 µM

Tested on OVCAR-8 ovarian: CC(=O)O[C@H]1CCC2[C@@H]3CCC4=C(O)C(=O)C(C#N)C[C@]4(C)C3CC[C@@]21C (some centres undefined) . Observed TGI: > 100 µM

Provenance of the data: PubChem BioAssay (NCI)
